B1: TPR t1 (parent)
chain: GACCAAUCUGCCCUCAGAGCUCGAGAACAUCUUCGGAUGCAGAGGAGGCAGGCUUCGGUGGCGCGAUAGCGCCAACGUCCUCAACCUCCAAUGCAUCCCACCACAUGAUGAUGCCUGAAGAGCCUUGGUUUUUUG

# Variants of: B1
# Experimental Protocol: polymerase ribozyme fitness, log enrichment relative to wild type (log ratio); higher = more active; in vitro selection for triplet polymerase activity
Entry flag: Yes if polymerase ribozyme fitness (log ratio) reaches -3; No if it does not.

Primary Sequence	Label
GACCAGUAGGCCCUCAGAGCUCGAGAACAUCUUCGGAUGCAGAGGAGGCAGGCUUCGGUGGCGCGAUAGCGCCAACGUCCUCAACCUCCAAUGCAUCCCACCACAUGAUGAUGCCUGAAGAGCCUUGGUUUUUUG [A6G C8A U9G]	Yes

Exam item: Can GACCAAUCUGCCCUCAGAGCUCGAGAACAUCUUCGUAUGCAGAGGUGGCAGGCUUCGGUGGCGCGAUAGCGGCAACGUCCUAAACCCCCAAUGCAUCCCACCACAUGAUGAUGCCUGAAGAGCCUUGGUGUUUUG [G36U A46U C72G C82A U87C U130G] be said to have polymerase ribozyme fitness (log ratio) at or above -3?
Marked response: No

Exam item: Is polymerase ribozyme fitness (log ratio) for GACCAAUCUGCCCUCAGAGCUCGAGAACAUCUUCGGAUGGAGAGGAGGCAGGCUUCGGUGGCGCGAUAGCACCAACGUCCUCAACCUCCAAUGCAUCCCACCACAUGAUGAUGCCUGAAGAGCCAUGGUUUUUUG [C40G G71A U125A] at or above -3?
Marked response: Yes

Exam item: Can GACCAAUCUGCCCUCAGAGCUCGAGAACAUCUUCGGAUGCAGAUGAGGCAGGCUUCGGUGGCGCGAUAGCGCCAACGUCCUCAACCUCCAAAGCAUCCCACCACAUGAUGAUGCCUGAAGAGCCUUGGUUUUUUG [G44U U92A] be said to have polymerase ribozyme fitness (log ratio) at or above -3?
Marked response: No

Exam item: Reported polymerase ribozyme fitness (log ratio) at or above -3? GACCAAUCUGCCCUCAGUGCUCGAGAACAUCUUCGGAUGCAGAGGAGGCAGGCUUCGGUGGCGCGAUAGCGCCAACGUCCUCAACCUCCAAGGCAUCCCACCACAUGAUGAUGCCUGAAGAGCCUUGGUUUUUUG [A18U U92G]
Marked response: No

Exam item: Quick check: does GACCAAUCUGCCCUCAAAGCUCGAGAACAUCUUCGGUUGCAGAGGAGGCCGGCUUCGGUGGCGCGAUAGCGCCAACGUCCUCAACCUCCAAUGCAUCCCACCACAUGAUGAUGCCUGAAGAGCCUUGGUUUUUUG [G17A A37U A50C] have polymerase ribozyme fitness (log ratio) greater than or equal to -3?
Marked response: No

Exam item: Is it the case that GACCAAUCUGCCCUCAGAGCUCGAGAACAUUUUCGGAUGCAGAGGAGGCAGGCUUCGGUGGCGCGAUAGCGCCAACGUCCUCAACCUCUAAUGCAACCCACCACAGGAUGAAGCCUGAAGAGCCUUGGUCUUUUG [C31U C89U U96A U106G U112A U130C] has polymerase ribozyme fitness (log ratio) reaching or exceeding -3?
Marked response: No

Exam item: Is polymerase ribozyme fitness (log ratio) for GACCAAUCUGCCCUCAGAGCUCGAGAACAUCUUCGGAUGCAGAGGAGGGAGGCUUCGGUGGCGCGAUAGCGCCAACGUCCUCAAGCUCCAAUGCAUCCCACCACAUGAUGAUGCCUGAAGAGCCUUGGUUUUUUG [C49G C85G] at or above -3?
Marked response: Yes
